- assayed.target: human Nav1.7 (Homo sapiens (Human))
- Sequence (Q15858 whole entry): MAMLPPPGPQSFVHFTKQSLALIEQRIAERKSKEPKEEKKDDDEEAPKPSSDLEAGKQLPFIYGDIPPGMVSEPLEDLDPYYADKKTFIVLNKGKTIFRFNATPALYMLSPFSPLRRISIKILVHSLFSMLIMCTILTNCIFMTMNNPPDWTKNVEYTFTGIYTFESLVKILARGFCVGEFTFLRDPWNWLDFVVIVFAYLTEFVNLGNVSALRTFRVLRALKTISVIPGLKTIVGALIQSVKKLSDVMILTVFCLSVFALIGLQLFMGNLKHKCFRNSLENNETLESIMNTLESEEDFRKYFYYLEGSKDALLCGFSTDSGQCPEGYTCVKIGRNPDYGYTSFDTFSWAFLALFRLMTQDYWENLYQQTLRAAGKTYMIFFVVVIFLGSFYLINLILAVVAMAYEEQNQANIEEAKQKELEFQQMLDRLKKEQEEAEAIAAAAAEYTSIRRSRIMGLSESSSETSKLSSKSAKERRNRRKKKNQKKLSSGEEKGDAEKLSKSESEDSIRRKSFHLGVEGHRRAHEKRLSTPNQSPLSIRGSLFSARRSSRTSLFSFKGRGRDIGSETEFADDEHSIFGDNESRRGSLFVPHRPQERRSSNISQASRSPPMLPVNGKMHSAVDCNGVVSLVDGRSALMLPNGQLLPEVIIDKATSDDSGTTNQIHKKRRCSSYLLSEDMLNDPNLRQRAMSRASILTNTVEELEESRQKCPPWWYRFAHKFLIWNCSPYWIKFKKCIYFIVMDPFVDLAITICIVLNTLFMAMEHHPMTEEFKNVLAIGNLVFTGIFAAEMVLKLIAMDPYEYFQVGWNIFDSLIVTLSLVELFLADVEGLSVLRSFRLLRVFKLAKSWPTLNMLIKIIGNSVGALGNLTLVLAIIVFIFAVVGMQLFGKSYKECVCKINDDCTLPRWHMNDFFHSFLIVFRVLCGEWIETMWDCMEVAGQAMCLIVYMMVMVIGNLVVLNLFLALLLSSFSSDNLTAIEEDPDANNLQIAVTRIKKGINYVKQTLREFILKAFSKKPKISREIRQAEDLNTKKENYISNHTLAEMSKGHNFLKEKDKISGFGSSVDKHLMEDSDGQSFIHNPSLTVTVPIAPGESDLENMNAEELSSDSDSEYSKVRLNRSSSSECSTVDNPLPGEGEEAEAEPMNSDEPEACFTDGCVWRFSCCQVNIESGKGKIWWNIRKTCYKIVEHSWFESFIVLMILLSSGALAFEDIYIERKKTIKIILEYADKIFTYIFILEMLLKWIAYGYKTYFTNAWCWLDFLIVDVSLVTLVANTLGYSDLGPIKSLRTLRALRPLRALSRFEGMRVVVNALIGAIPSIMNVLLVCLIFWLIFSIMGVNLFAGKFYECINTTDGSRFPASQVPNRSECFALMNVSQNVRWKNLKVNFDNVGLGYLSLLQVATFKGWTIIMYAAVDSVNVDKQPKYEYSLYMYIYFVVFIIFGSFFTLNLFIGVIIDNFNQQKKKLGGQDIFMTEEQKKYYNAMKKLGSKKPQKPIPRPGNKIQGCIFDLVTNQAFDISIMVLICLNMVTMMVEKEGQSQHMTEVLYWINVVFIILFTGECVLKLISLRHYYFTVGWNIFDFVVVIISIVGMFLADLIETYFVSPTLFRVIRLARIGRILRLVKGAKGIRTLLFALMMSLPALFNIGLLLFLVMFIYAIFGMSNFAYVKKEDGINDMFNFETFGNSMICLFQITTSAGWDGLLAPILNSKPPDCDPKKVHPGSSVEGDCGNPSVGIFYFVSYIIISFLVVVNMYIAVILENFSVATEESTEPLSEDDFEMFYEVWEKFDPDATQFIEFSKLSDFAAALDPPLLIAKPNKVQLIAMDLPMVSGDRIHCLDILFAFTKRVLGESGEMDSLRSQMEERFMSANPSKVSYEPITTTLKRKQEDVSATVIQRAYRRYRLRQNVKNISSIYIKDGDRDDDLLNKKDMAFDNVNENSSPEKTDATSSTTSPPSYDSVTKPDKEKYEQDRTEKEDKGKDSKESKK
- Sequence (Q07699 19-218 partner): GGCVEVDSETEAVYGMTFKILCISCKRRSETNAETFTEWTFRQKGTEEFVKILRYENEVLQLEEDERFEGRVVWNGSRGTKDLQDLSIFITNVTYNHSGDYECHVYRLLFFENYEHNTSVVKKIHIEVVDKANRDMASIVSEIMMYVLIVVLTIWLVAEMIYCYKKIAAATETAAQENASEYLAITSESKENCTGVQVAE
- assay.comment: Human Nav1.7 inhibitory activity evaluation (automated patch clamp QPatch16X, HEK293A cells stably expressing human Nav1.7 and human Navβ1)
- Type: cell-based
- reported.conditions: HEK293A cells stably expressing human Nav1.7 and human Navβ1, automated patch clamp QPatch16X
I'd appreciate it if you could supply IC50 values for the items below.

Entry COc1ncccc1C1CCc2nc(C(=O)N3CCC(c4ccccc4)C3)cn2C1 (stereo not drawn) [Example 26] — recorded IC50 = < 10000 nM

Entry CCCC1CCn2nc(C(=O)N[C@H]3COc4ccc(C#N)cc4C3)cc2O1 (single isomer, unassigned) [95 (isomer A)] — recorded IC50 = < 1000 nM

Entry O=C(N[C@H]1COc2ccc(CC(F)F)cc2C1)c1cc2n(n1)CCC(COCC(F)(F)F)O2 (single isomer, unassigned) [127 (isomer A)] — recorded IC50 = < 1000 nM

Entry O=C(N[C@H]1COc2ccc(CC(F)F)cc2C1)c1cc2n(n1)CCC(COCC1CC1)O2 (single isomer, unassigned) [109 (isomer B)] — recorded IC50 = < 10000 nM

Entry O=C(c1cn2c(n1)CNC(c1ccccc1)C2)N1CCOC(c2cccc(C(F)(F)F)c2)C1 (stereo not drawn) [Example 61] — recorded IC50 = < 10000 nM

Entry O=C(NC1COc2cccc(OC(F)(F)F)c2C1)c1cc2n(n1)CCC(c1ccccc1)O2 (stereo not drawn) [Example 78] — recorded IC50 = < 10000 nM

Entry O=C(N[C@H]1COc2ccc(C(F)F)cc2C1)c1cn2c(n1)CCC(C(F)(F)F)C2 (single isomer, unassigned) [7 (isomer A)] — recorded IC50 = < 1000 nM

Entry COc1ncc(C(F)(F)F)cc1C1CCc2nc(C(=O)N3CCOC(c4ccc(F)cc4F)C3)cn2C1 (stereo not drawn) [Example 32] — recorded IC50 = < 10000 nM

Entry O=C(N[C@H]1COc2ccc(Cl)cc2C1)c1nc2n(c1-c1ccccn1)CCCC2 [Example 18] — recorded IC50 = < 1000 nM

Entry O=C(N[C@H]1COc2ccc(C(F)(F)F)cc2C1)c1nc2n(c1-c1ccccn1)CCOC2 [Example 67] — recorded IC50 = < 1000 nM

Entry C[C@@H]1CCn2nc(C(=O)N[C@H]3COc4ccc(Br)cc4C3)cc2O1 [Example 89] — recorded IC50 = < 1000 nM

Entry CC(C)(C)C1CCc2nc(C(=O)N[C@H]3COc4ccccc4C3)cn2C1 (stereo partly drawn) [Example 36] — recorded IC50 = < 1000 nM

Entry O=C(N[C@H]1COc2ccc(CC(F)F)cc2C1)c1cc2n(n1)CCC(COC(F)F)O2 (single isomer, unassigned) [138 (isomer A)] — recorded IC50 = < 1000 nM

Entry O=C(N[C@H]1COc2ccccc2C1)c1cn2c(n1)CCC(NCc1ccccc1)C2 (stereo partly drawn) [Example 42] — recorded IC50 = < 10000 nM

Entry CN1Cc2nc(C(=O)N[C@H]3COc4ccccc4C3)cn2CC1CCc1ccc(F)cc1 (stereo partly drawn) [Example 54] — recorded IC50 = < 10000 nM

The values you see were collected from patent US12421225B2.
